# System: MDA-MB-231 multicell spheroids, viability (%T/C)
# protocol description: Anticancer human tumor MDA-MB-231 cell line growth inhibition [IpAb];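 note: viability read after seven days of drug exposure; 100% = DMSO vehicle control viability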
# condition summary: second compound 1 µM; first compound 0.0949 µM; hits give low values
Would you kindly list viability, T/C for each of these compounds?
Give your result in % as a bare value.

viability, T/C value, target or system MDA-MB-231 multicell spheroids, viability (%T/C), for Cn1cnc2c(F)c(Nc3ccc(Br)cc3Cl)c(C(=O)NOCCO)cc21 + CCN1CCN(Cc2ccc(Nc3ncc(F)c(-c4cc(F)c5nc(C)n(C(C)C)c5c4)n3)nc2)CC1 : 20.1

viability, T/C value, target or system MDA-MB-231 multicell spheroids, viability (%T/C), for CC(=O)c1c(C)c2cnc(Nc3ccc(N4CCNCC4)cn3)nc2n(C2CCCC2)c1=O + CC(C)NCC(C(=O)N1CCN(c2ncnc3c2C(C)CC3O)CC1)c1ccc(Cl)cc1 : 26.9

viability, T/C value, target or system MDA-MB-231 multicell spheroids, viability (%T/C), for CC(C)(C)c1cnc(CSc2cnc(NC(=O)C3CCNCC3)s2)o1 + CCN1CCN(Cc2ccc(Nc3ncc(F)c(-c4cc(F)c5nc(C)n(C(C)C)c5c4)n3)nc2)CC1 : 34.9

Source: PubChem BioAssay AID2060328
